Source: PubChem BioAssay AID1159580

- TEST_METHOD_NOTES: chemical genetic growth profiling, strain panel (AID 1159580);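 further: tested at 20 µM; growth read once vehicle control cultures reached saturation at 30 °C; 1 = growth at the plate median or of vehicle wells; lower values mean less growth of the strain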
- ASSAY_CONDITIONS: S. cerevisiae deletion strains, growth OD, locus YCL029C, strain bik1, stronger effect = lower value
The whole screen tested about 5,500 compounds, of which about 2,000 (36%) were called active. About 18% were inconclusive and are not listed. The list shows a part of the results.
MEASURE_NAME: normalized growth
Answers are plain numbers.

Below are worked cases with known answers.
COMPOUND: CC1(C)C(=O)C=C[C@@]2(C)C1C[C@@H](O)[C@]1(C)C2CC[C@@]2(C)[C@H](c3ccoc3)OC(=O)[C@H]3O[C@]321 (stereo partly specified)
normalized growth: 0.969
//
COMPOUND: C[C@]12CCC3c4ccc(O)cc4CCC3C1CC[C@@H]2O (stereo partly specified)
normalized growth: 0.996
//
COMPOUND: CN1C(C)(C)CCCC1(C)C
normalized growth: 0.988
//
COMPOUND: CC(C)c1c(O)c(-c2cc3c(c(C(C)C)c2O)CCC2C(C)(C)CCC[C@]32C)cc2c1CCC1C(C)(C)CCC[C@]21C (stereo partly specified)
normalized growth: 1.02
//
COMPOUND: CC(C)c1c(O)ccc2c1CCC1C(C)(C)CCC[C@]21C (stereo partly specified)
normalized growth: 0.29
//
COMPOUND: CC1(C)C=CC(=O)[C@@]2(C)C1CC(=O)[C@]1(C)C2CC[C@@]2(C)[C@H](c3ccoc3)OC(=O)C3OC321 (stereo partly specified)
normalized growth: 0.96
//
COMPOUND: CC(=O)O[C@@H]1CC(=O)[C@@]2(C)C(CC(=O)[C@]3(C)C2CC[C@@]2(C)[C@H](c4ccoc4)OC(=O)C4OC423)C1(C)C (stereo partly specified)
normalized growth: 1.01
//
COMPOUND: CC1(C)C(=O)C=C[C@@]2(C)C1C=C[C@]1(C)C2CC[C@@]2(C)[C@H](c3ccoc3)OC(=O)C3OC321 (stereo partly specified)
normalized growth: 0.986

Hi, could you look up normalized growth for each item in my list?
1. COC(=O)[C@]1(C)CCC[C@]2(C)c3ccc(C(C)C)cc3C(=O)CC12 (stereo partly specified)
2. CCC/C=C1\OC(=O)C2=C1CCC=C2
3. CCCCCCCCCCCCCCCCCC(=O)OC(CC(=O)O)C[N+](C)(C)C (stereo unspecified)
4. CC(C)c1c(O)ccc2c1CCC1[C@@](C)(C=O)CCC[C@]21C (stereo partly specified)

[out]
1. 1.01
2. 0.978
3. 0.316
4. 0.52

For each entry beneath this line, provide reported normalized growth.
1. CC(=O)OC(C)C[N+](C)(C)C (stereo unspecified)
2. CC(=O)Oc1ccc2c(c1C(C)C)CCC1C(C)(C)CCC[C@]21C (stereo partly specified)
3. CC12CCC3c4ccc(OC(=O)c5ccccc5)cc4CCC3C1CCC2O (stereo unspecified)
4. NC(=O)NCC(N)C(=O)O (stereo unspecified)
5. COc1cc(OC)c2ccc(=O)oc2c1
6. COc1ccc2ccc(=O)oc2c1

[out]
[1.01, 0.997, 1, 0.988, 1, 0.999]

Hey, quick one: what's normalized growth for each of these?
1. CC(CC(O)C1OC1(C)C)[C@@H]1CCC2(C)C3=CCC4C(C)(C)C(=O)CCC4(C)C3CC[C@@]12C (stereo partly specified)
2. COc1c(C(C)C)oc2cc3oc(=O)ccc3cc12
3. CC1(C)C(=O)C=C[C@@]2(C)C1CC(=O)[C@]1(C)C2CC[C@@]2(C)[C@H](c3ccoc3)OC(=O)[C@H]3O[C@]321 (stereo partly specified)

[out]
1: 1.03; 2: 0.839; 3: 1.02
